Exercise: for every item that follows, state its recorded IC50.
molecular target: BTK enzyme (recombinant full-length BTK, hBTK) (Homo sapiens); construct: recombinant protein from baculovirus-transfected S 19 cells: full-length BTK, 6 HIS-tag cleaved; 6 HIS-tag (cleaved yes); test: Btk enzyme activity assay (LANCE TR-FRET); settings: 50 pM hBTK, 25 μM ATP, 60 minute compound and enzyme incubation, concentration range 1 μM to 0.017 nM, read-out: BTK binding IC50
Sequence (Q06187 whole entry): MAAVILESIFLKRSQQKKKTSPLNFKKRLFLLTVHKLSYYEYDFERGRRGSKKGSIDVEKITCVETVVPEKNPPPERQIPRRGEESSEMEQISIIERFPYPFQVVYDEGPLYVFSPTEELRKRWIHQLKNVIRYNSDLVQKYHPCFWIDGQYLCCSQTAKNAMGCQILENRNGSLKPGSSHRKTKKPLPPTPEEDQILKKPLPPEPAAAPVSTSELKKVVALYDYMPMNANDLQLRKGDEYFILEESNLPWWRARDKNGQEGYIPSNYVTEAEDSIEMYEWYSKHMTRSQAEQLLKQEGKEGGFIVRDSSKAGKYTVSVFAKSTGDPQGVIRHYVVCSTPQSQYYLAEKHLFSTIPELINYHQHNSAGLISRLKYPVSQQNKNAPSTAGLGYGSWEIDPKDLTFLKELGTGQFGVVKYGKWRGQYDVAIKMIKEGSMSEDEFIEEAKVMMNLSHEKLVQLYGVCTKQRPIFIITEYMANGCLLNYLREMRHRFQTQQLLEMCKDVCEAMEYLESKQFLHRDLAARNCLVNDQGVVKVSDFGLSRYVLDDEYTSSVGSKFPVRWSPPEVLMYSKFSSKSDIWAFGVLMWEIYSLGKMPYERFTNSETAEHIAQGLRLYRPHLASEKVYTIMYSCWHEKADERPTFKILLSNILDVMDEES
Give bare numbers, in nM.

// known answers, use as guide
| MOLECULE_SMILES | OBSERVED_MEASUREMENT |
| --- | --- |
| C[C@H]1CC[C@@H](c2nc(-c3ccc(C(=O)Nc4cc(OC5CC5)ccn4)cc3)c3c(N)nccn23)CN1C(=O)N(C)C | 0.448 |
| Nc1nccn2c([C@H]3CN(C4CCOCC4)[C@H](CO)CO3)nc(-c3ccc(C(=O)Nc4cc(C(F)(F)F)ccn4)cc3F)c12 | 6.78 |

**Q:** What value of IC50 has been reported for the following molecule? `C[C@H](O)C(=O)N1C[C@H](c2nc(-c3ccc(C(=O)Nc4cc(C(F)(F)F)ccn4)cc3)c3c(N)ncc(Cl)n23)OC[C@@H]1C`
**A:** 0.68

---

Exercise: for every item that follows, state its recorded IC50.
molecular target: BTK enzyme (recombinant full-length BTK, hBTK) (Homo sapiens); construct: recombinant protein from baculovirus-transfected S 19 cells: full-length BTK, 6 HIS-tag cleaved; 6 HIS-tag (cleaved yes); assay: Btk enzyme activity assay (LANCE TR-FRET); details: 50 pM hBTK, 25 μM ATP, 60 minute compound and enzyme incubation, concentration range 1 μM to 0.017 nM, read-out: BTK binding IC50
Mention the unit after the number when you answer.

// known answers, use as guide
| MOLECULE_SMILES | IC50 |
| --- | --- |
| CCOc1cc(C(=O)Nc2cc(C(F)(F)F)ccn2)ccc1-c1nc([C@H]2CN(Cc3cnn(C)c3)[C@@H](C)CO2)n2c(Cl)cnc(N)c12 | 3.02 nM |
| C[C@H]1CO[C@@H](c2nc(-c3ccc(C(=O)Nc4cc(C5CC5)ccn4)cc3F)c3c(N)nccn23)CN1C1CCOCC1 | 0.814 nM |
| COCC(=O)N1C[C@H](c2nc(-c3ccc(C(=O)Nc4cc(C(C)(F)F)ccn4)cc3)c3c(N)nccn23)CC[C@@H]1C | 0.327 nM |

Your task in this section: give IC50 for each listed record.
1. COCCC(=O)N1C[C@H](c2nc(-c3ccc(C(=O)Nc4cc(C(F)(F)F)ccn4)cc3OC)c3c(N)nccn23)OC[C@@H]1C
2. COCC(=O)N1C[C@H](c2nc(-c3ccc(C(=O)Nc4cc(C(F)(F)F)ccn4)cc3F)c3c(N)nccn23)OC[C@H]1C
3. CCC(=O)N1C[C@H](c2nc(-c3ccc(C(=O)Nc4cc(C(F)(F)F)ccn4)cc3OC)c3c(N)ncc(Cl)n23)OC[C@@H]1C
4. CCc1cnc(N)c2c(-c3ccc(C(=O)Nc4cc(C(F)(F)F)ccn4)cc3F)nc([C@H]3CN(C(=O)C4CC4)[C@@H](C)CO3)n12
5. COc1cc(C(=O)Nc2cc(C(F)(F)F)ccn2)ccc1-c1nc([C@H]2CN(C(=O)C3CN(C(=O)C4CC4)C3)[C@@H](C)CO2)n2ccnc(N)c12
6. C[C@@H]1CO[C@@H](c2nc(-c3ccc(C(=O)Nc4cc(C(F)(F)F)ccn4)cc3F)c3c(N)nccn23)CN1C(=O)C1(C)CC1

**A:**
2.17 nM
13.8 nM
1.25 nM
0.674 nM
2.65 nM
10.9 nM

Your task in this section: give IC50 for each listed record.
1. CCOc1cc(C(=O)Nc2cc(C(F)(F)F)ccn2)ccc1-c1nc([C@H]2CN(C(=O)[C@H](C)O)[C@@H](C)CO2)n2c(CC)cnc(N)c12
2. CCOc1cc(C(=O)Nc2cc(C(F)(F)F)ccn2)ccc1-c1nc([C@H]2CN(C(=O)[C@H](C)O)[C@@H](C)CO2)n2ccnc(N)c12
3. Nc1nccn2c([C@H]3CN(C4COC4)[C@H](CO)CO3)nc(-c3ccc(C(=O)Nc4cc(C(F)(F)F)ccn4)cc3F)c12

**A:**
1: 0.788 nM; 2: 1.74 nM; 3: 1.23 nM

**Q:** What value of IC50 has been reported for the following compound? `COc1cc(C(=O)Nc2cc(C(F)(F)F)ccn2)ccc1-c1nc([C@H]2CN(C3CCOCC3)[C@@H](C)CO2)n2ccnc(N)c12`
**A:** 1.57 nM
